- measurement.target: T1, hIL-18BP-hFc (human, UniProt O95998 31-194, limits assumed)
- T1 sequence (looked up): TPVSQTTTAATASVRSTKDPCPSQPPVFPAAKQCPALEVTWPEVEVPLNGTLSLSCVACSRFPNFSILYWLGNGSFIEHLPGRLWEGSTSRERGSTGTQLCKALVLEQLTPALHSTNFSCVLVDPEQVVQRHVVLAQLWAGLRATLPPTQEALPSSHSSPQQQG
- experimental.protocol: cell-based or functional assay
Assign EC50 Fold Change (+BP/-BP), hIL-18 reporter assay to each entry below.
Field: value (include unit after the number)

Examples with answers:
binder	measured.result
IL-18 variant polypeptide MM6 (ligand) YFAKLYSKLSVIRNLNDQVLFIDQGNRPLFEDMTDSDCRDNAPRTIFIISMYKRSSLRGMAVTISVKCEKISTLSCENKIISFKEMNPPDAIKDTKSDIIFFQRSVPGHDNKMQFESSSYEGYFLACEKERDLFKLILKKEDELGDRSIMFTVQNED	1.5 fold
IL-18 variant polypeptide M31 (ligand) YFPKLRSKLSVIRNLNDQVLFIDQGNRPLFEDMTDSDCRDNAPRTIFIISMYKHSIHRGMAVTISVKCEKISTLSCENKIISFKEMNPPDIIKDTKSDIIFFQYSVPGHDNKMQFESSSYEGYFLACEKERDLFKLILKKEDELGDRSIMFTVQNED	0.72 fold
IL-18 variant polypeptide MM2 (ligand) YFAKLYSKLSVIRNLNDQVLFIDQGNRPLFEDMTDSDCRDNAPRTIFIISMYKRSSLRGMAVTISVKCEKISTLSCENKIISFKEMNPPDGIKDTKSDIIFFQRSVPGHDNKMQFESSSYEGYFLACEKERDLFKLILKKEDELGDRSIMFTVQNED	2.41 fold
IL-18 variant polypeptide M32 (ligand) YFPKLGSKLSVIRNLNDQVLFIDQGNRPLFEDMTDSDCRDNAPRTIFIISMYKSSSRRGMAVTISVKCEKISTLSCENKIISFKEMNPPDNIKDTKSDIIFFQRSVPGHDNKMQFESSSYEGYFLACEKERDLFKLILKKEDELGDRSIMFTVQNED	0.69 fold

Field: next binder
q: Given the binder IL-18 variant polypeptide M15 (ligand) YFPKLRSKLSVIRNLNDQVLFIDQGNRPLFEDMTDSDCRDNAPRTIFIISMYKSSYTRGMAVTISVKCEKISTLSCENKIISFKEMNPPDGIKDTKSDIIFFQRSVPGHDNKMQFESSSYEGYFLACEKERDLFKLILKKEDELGDRSIMFTVQNED , what is its reported EC50 Fold Change (+BP/-BP), hIL-18 reporter assay?
a: 0.92 fold
